B1: Histidine--tRNA ligase, cytoplasmic, residues 8 to 45; numbered along this chain, P12081 (parent)
chain: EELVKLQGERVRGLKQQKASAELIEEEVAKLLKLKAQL

Variants of: B1
Assay: abundance fitness (aPCA) (normalised: wild type 0, dead -1); higher = more abundant; growth selection in yeast, the domain comes from the species named
Details: Homo sapiens
Cut-off -0.2 on abundance fitness, inclusive. At or above means MET; below means NOT MET.

Some solved entries appear below for comparison.
> print(dat)
   mutationannotation  classname
1                L23A        MET
2                R10C    NOT MET
3                R10S    NOT MET

IN: Please check the record `L32R` and state if its abundance fitness is at or above -0.2.
OUT: MET
